system: CAL-148; assay: normalised response (% of control), CellTiter-Glo; higher = more viable cells (100 = DMSO, 0 = benzethonium chloride kill control); conditions: incubation time: 72 h
Listed here: items and their measured normalised response.
Answer in %, number only, no unit symbol.

O=P1(N(CCCl)CCCl)NCCCO1 (centres undefined) [Cyclophosphamide] (40 nM)
104

Query string: Quick check: normalised response on CAL-148, item CNC(=O)c1ccc(N2C(=S)N(c3ccc(C#N)c(C(F)(F)F)c3)C(=O)C23CCC3)cc1F [RD162] (1 nM) ?
Result string: 104

Query string: Quick check: normalised response on CAL-148, item Nc1cc(C(F)(F)F)c(-c2cc(N3CCOCC3)nc(N3CCOCC3)n2)cn1 [Buparlisib] (1 nM) ?
Result string: 95

Query string: Quick check: normalised response on CAL-148, item Cc1cc(Nc2cc(CN3CCOCC3)c3nc(C)c(Cc4ccc(Cl)cc4F)n3n2)n[nH]1 [Gandotinib] (1000 nM) ?
Result string: 96.7

Where do the numbers come from? From the supplement of paper PMC4862054.
